Source of measurements: the supplement of paper PMC7877785

# Test: self-splicing fitness, log relative to wild type (ln ratio); higher = more splicing; Tetrahymena group I intron in knt gene, E. coli kanamycin selection, DiMSum; sequences stand for … in CUCUCU…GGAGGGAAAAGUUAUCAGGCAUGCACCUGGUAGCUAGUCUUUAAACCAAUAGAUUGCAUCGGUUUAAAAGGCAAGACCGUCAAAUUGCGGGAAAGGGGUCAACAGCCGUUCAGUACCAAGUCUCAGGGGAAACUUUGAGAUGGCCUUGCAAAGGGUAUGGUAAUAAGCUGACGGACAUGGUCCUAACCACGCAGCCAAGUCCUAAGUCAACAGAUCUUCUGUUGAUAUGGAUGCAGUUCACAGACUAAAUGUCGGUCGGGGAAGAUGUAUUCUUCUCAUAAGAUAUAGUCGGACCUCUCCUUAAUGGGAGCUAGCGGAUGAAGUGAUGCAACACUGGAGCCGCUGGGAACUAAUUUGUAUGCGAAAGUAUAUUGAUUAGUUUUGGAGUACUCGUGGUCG;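 also: selection with 25 µg/mL kanamycin versus none on LB agar overnight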
# Test Context: 30 °C
Given measured self-splicing fitness (ln), output satisfied if it is greater than or equal to -2 and not satisfied if not.

-- ask Decide: is the reported value of self-splicing fitness (ln) for GAAAAGCAAUAUUACGGGAA equal to or greater than -2?
-- reply not satisfied

-- ask Decide: is the reported value of self-splicing fitness (ln) for CUGAAGCAAUAUUACGCAUG equal to or greater than -2?
-- reply satisfied

-- ask Decide: is the reported value of self-splicing fitness (ln) for AUAAAGCAAUAUUACGCUUG equal to or greater than -2?
-- reply satisfied

-- ask Decide: is the reported value of self-splicing fitness (ln) for CAUUAGCAAUAUUACGACUA equal to or greater than -2?
-- reply satisfied

-- ask Decide: is the reported value of self-splicing fitness (ln) for AUUAAGCAAUAUUACGAGAG equal to or greater than -2?
-- reply not satisfied

-- ask Decide: is the reported value of self-splicing fitness (ln) for CCGAAGCAAUAUUACGCAUG equal to or greater than -2?
-- reply satisfied

-- ask Decide: is the reported value of self-splicing fitness (ln) for AUCUAGCAAUAUUACGGUCU equal to or greater than -2?
-- reply satisfied

-- ask Decide: is the reported value of self-splicing fitness (ln) for UUCCAGCAAUAUUACGAAGG equal to or greater than -2?
-- reply not satisfied

-- ask Decide: is the reported value of self-splicing fitness (ln) for CCAUAGCAAUAUUACGGACG equal to or greater than -2?
-- reply satisfied

-- ask Decide: is the reported value of self-splicing fitness (ln) for UGCAAGCAAUAUUACGCAGG equal to or greater than -2?
-- reply not satisfied

-- ask Decide: is the reported value of self-splicing fitness (ln) for UCAUAGCAAUAUUACGCACU equal to or greater than -2?
-- reply not satisfied

-- ask Decide: is the reported value of self-splicing fitness (ln) for CAGUAGCAAUAUUACGUAGU equal to or greater than -2?
-- reply not satisfied

-- ask Decide: is the reported value of self-splicing fitness (ln) for CCGAAGCAAUAUUACGAGGA equal to or greater than -2?
-- reply not satisfied

-- ask Decide: is the reported value of self-splicing fitness (ln) for CUUUAGCAAUAUUACGCGGG equal to or greater than -2?
-- reply not satisfied

-- ask Decide: is the reported value of self-splicing fitness (ln) for GAGUAGCAAUAUUACGGUCU equal to or greater than -2?
-- reply satisfied

-- ask Decide: is the reported value of self-splicing fitness (ln) for GGUUAGCAAUAUUACGAGUG equal to or greater than -2?
-- reply not satisfied

-- ask Decide: is the reported value of self-splicing fitness (ln) for GAACAGCAAUAUUACGCGCU equal to or greater than -2?
-- reply satisfied

-- ask Decide: is the reported value of self-splicing fitness (ln) for AAACAGCAAUAUUACGUUAG equal to or greater than -2?
-- reply not satisfied

-- ask Decide: is the reported value of self-splicing fitness (ln) for GUAUAGCAAUAUUACGACCA equal to or greater than -2?
-- reply satisfied

-- ask Decide: is the reported value of self-splicing fitness (ln) for ACAUAGCAAUAUUACGUUUG equal to or greater than -2?
-- reply not satisfied

-- ask Decide: is the reported value of self-splicing fitness (ln) for CACGAGCAAUAUUACGCCUC equal to or greater than -2?
-- reply not satisfied

-- ask Decide: is the reported value of self-splicing fitness (ln) for AAAAAGCAAUAUUACGUGCC equal to or greater than -2?
-- reply satisfied

-- ask Decide: is the reported value of self-splicing fitness (ln) for GGUCAGCAAUAUUACGCUUG equal to or greater than -2?
-- reply satisfied

-- ask Decide: is the reported value of self-splicing fitness (ln) for CUCAAGCAAUAUUACGGAAU equal to or greater than -2?
-- reply not satisfied

-- ask Decide: is the reported value of self-splicing fitness (ln) for GGCAAGCAAUAUUACGGUAA equal to or greater than -2?
-- reply satisfied

-- ask Decide: is the reported value of self-splicing fitness (ln) for CGUCAGCAAUAUUACGCUUG equal to or greater than -2?
-- reply satisfied

-- ask Decide: is the reported value of self-splicing fitness (ln) for AUGGAGCAAUAUUACGGACG equal to or greater than -2?
-- reply not satisfied

-- ask Decide: is the reported value of self-splicing fitness (ln) for GUUAAGCAAUAUUACGGCCA equal to or greater than -2?
-- reply satisfied

-- ask Decide: is the reported value of self-splicing fitness (ln) for CGCAAGCAAUAUUACGUAGG equal to or greater than -2?
-- reply satisfied

-- ask Decide: is the reported value of self-splicing fitness (ln) for AAAGAGCAAUAUUACGAAUU equal to or greater than -2?
-- reply satisfied

-- ask Decide: is the reported value of self-splicing fitness (ln) for CGGAAGCAAUAUUACGUAAU equal to or greater than -2?
-- reply not satisfied

-- ask Decide: is the reported value of self-splicing fitness (ln) for CUCAAGCAAUAUUACGGAGU equal to or greater than -2?
-- reply not satisfied

-- ask Decide: is the reported value of self-splicing fitness (ln) for AUGAAGCAAUAUUACGAUAA equal to or greater than -2?
-- reply satisfied

-- ask Decide: is the reported value of self-splicing fitness (ln) for UUUUAGCAAUAUUACGAGAG equal to or greater than -2?
-- reply satisfied

-- ask Decide: is the reported value of self-splicing fitness (ln) for CGCGAGCAAUAUUACGCGAG equal to or greater than -2?
-- reply not satisfied

-- ask Decide: is the reported value of self-splicing fitness (ln) for GACGAGCAAUAUUACGGAGC equal to or greater than -2?
-- reply not satisfied

-- ask Decide: is the reported value of self-splicing fitness (ln) for UAGUAGCAAUAUUACGAUGG equal to or greater than -2?
-- reply not satisfied

-- ask Decide: is the reported value of self-splicing fitness (ln) for AACCAGCAAUAUUACGGGAG equal to or greater than -2?
-- reply satisfied

-- ask Decide: is the reported value of self-splicing fitness (ln) for CAAAAGCAAUAUUACGACUA equal to or greater than -2?
-- reply satisfied

-- ask Decide: is the reported value of self-splicing fitness (ln) for UCAUAGCAAUAUUACGCAUG equal to or greater than -2?
-- reply not satisfied

-- ask Decide: is the reported value of self-splicing fitness (ln) for AAAGAGCAAUAUUACGUGUG equal to or greater than -2?
-- reply not satisfied

-- ask Decide: is the reported value of self-splicing fitness (ln) for UCGAAGCAAUAUUACGUGCC equal to or greater than -2?
-- reply not satisfied

-- ask Decide: is the reported value of self-splicing fitness (ln) for GUUGAGCAAUAUUACGCGUG equal to or greater than -2?
-- reply not satisfied

-- ask Decide: is the reported value of self-splicing fitness (ln) for AACGAGCAAUAUUACGAGGA equal to or greater than -2?
-- reply not satisfied

-- ask Decide: is the reported value of self-splicing fitness (ln) for GUUCAGCAAUAUUACGAGUU equal to or greater than -2?
-- reply satisfied

-- ask Decide: is the reported value of self-splicing fitness (ln) for CGUCAGCAAUAUUACGCUCA equal to or greater than -2?
-- reply satisfied

-- ask Decide: is the reported value of self-splicing fitness (ln) for GGCUAGCAAUAUUACGUGCA equal to or greater than -2?
-- reply satisfied

-- ask Decide: is the reported value of self-splicing fitness (ln) for UGACAGCAAUAUUACGCAUU equal to or greater than -2?
-- reply not satisfied

-- ask Decide: is the reported value of self-splicing fitness (ln) for CCUAAGCAAUAUUACGGGUC equal to or greater than -2?
-- reply not satisfied

-- ask Decide: is the reported value of self-splicing fitness (ln) for CUCAAGCAAUAUUACGGACU equal to or greater than -2?
-- reply not satisfied

-- ask Decide: is the reported value of self-splicing fitness (ln) for UAUGAGCAAUAUUACGGCAC equal to or greater than -2?
-- reply not satisfied

-- ask Decide: is the reported value of self-splicing fitness (ln) for UGUGAGCAAUAUUACGUACG equal to or greater than -2?
-- reply satisfied

-- ask Decide: is the reported value of self-splicing fitness (ln) for GGUCAGCAAUAUUACGCAUC equal to or greater than -2?
-- reply satisfied

-- ask Decide: is the reported value of self-splicing fitness (ln) for CUCAAGCAAUAUUACGUCUU equal to or greater than -2?
-- reply not satisfied

-- ask Decide: is the reported value of self-splicing fitness (ln) for CAACAGCAAUAUUACGCAUU equal to or greater than -2?
-- reply not satisfied

-- ask Decide: is the reported value of self-splicing fitness (ln) for UAGUAGCAAUAUUACGUGUA equal to or greater than -2?
-- reply not satisfied

-- ask Decide: is the reported value of self-splicing fitness (ln) for UCUAAGCAAUAUUACGACUU equal to or greater than -2?
-- reply not satisfied

-- ask Decide: is the reported value of self-splicing fitness (ln) for GCACAGCAAUAUUACGCGAG equal to or greater than -2?
-- reply not satisfied

-- ask Decide: is the reported value of self-splicing fitness (ln) for AUGGAGCAAUAUUACGCACA equal to or greater than -2?
-- reply satisfied

-- ask Decide: is the reported value of self-splicing fitness (ln) for AACAAGCAAUAUUACGUCAG equal to or greater than -2?
-- reply not satisfied

-- ask Decide: is the reported value of self-splicing fitness (ln) for GCGGAGCAAUAUUACGGGUA equal to or greater than -2?
-- reply not satisfied

-- ask Decide: is the reported value of self-splicing fitness (ln) for CCUCAGCAAUAUUACGAUCA equal to or greater than -2?
-- reply not satisfied

-- ask Decide: is the reported value of self-splicing fitness (ln) for ACUCAGCAAUAUUACGCUCU equal to or greater than -2?
-- reply satisfied
